# System: MDA-MB-435
# ASSAY_NOTES: NCI tumour cell line growth inhibition, 48 h
# TGI listing for each entry below
All answers are understood in µM, so give the number only.

{"COMPOUND": "CC(NCCN(C)C)C1CCC2C3CCc4cc(O)ccc4C3CCC12C (stereo not given)", "READOUT_UNIT": "µM", "OBSERVED_RESULT": 4.7}
{"COMPOUND": "Cc1cccc(CNc2c3ccccc3nc3ccccc23)c1", "READOUT_UNIT": "µM", "OBSERVED_RESULT": 3.22}
{"COMPOUND": "CCN(Cc1cc(Cl)cc(C)c1O)Cc1c(O)ccc2ccccc12", "READOUT_UNIT": "µM", "OBSERVED_RESULT": 29.9}
{"COMPOUND": "CNc1c2ccccc2nc2occ(Cl)c12", "READOUT_UNIT": "µM", "OBSERVED_RESULT": 79.9}
{"COMPOUND": "CCCC(=O)Oc1ccc(/C(=C(\\C)c2ccc(Cl)cc2)c2ccc(OCCN(CC)CC)cc2)cc1", "READOUT_UNIT": "µM", "OBSERVED_RESULT": 3.68}
{"COMPOUND": "O=C(O)c1ccc2c(O)c(O)ccc2c1", "READOUT_UNIT": "µM", "OBSERVED_RESULT": 34.7}
{"COMPOUND": "O=NNc1ccc(-c2ccccc2)cn1", "READOUT_UNIT": "µM", "OBSERVED_RESULT": 30.9}

Kindly consider the entry below.
Qu. Recall the recorded TGI for `CC(=O)CC[N+](C)(C)C` with MDA-MB-435 and state it.
Ans. 76.7

====

# TGI listing for each entry below
# Tested on: SF-295 CNS
# ASSAY_NOTES: NCI tumour cell line growth inhibition, 48 h

{"COMPOUND": "Cc1nc2c(Cl)cc(Cl)cc2c2c1CCO2", "ENDPOINT_LABEL": "TGI", "OBSERVED_RESULT": "> 100 µM"}
{"COMPOUND": "O=C(CC1(O)C(=O)Nc2ccccc21)c1ccc(Cl)c(Cl)c1 (stereo not drawn)", "ENDPOINT_LABEL": "TGI", "OBSERVED_RESULT": "> 100 µM"}

Kindly consider the entry below.
Qu. Give its TGI value. Item: `CC(=O)/C=C1\CC(=O)N(C)c2ccccc2N1`
Ans. > 100 µM

====

# TGI listing for each entry below
# System: HT29 colon
# ASSAY_NOTES: NCI tumour cell line growth inhibition, 48 h

Some entries whose results are on file:
{"MOLECULE": "Cc1ccc([N+](=O)[O-])cc1S(=O)(=O)Nc1ccc(C2=NN(S(=O)(=O)c3cc([N+](=O)[O-])ccc3C)C(c3cccs3)C2)cc1 (stereo unspecified)", "TGI": "> 100 µM"}
{"MOLECULE": "N#CN1CC[C@@H]2CC3(CCC2C1)OCCO3 (stereo partly specified)", "TGI": "> 100 µM"}
{"MOLECULE": "CCCC(=O)OCC1OC(n2cc(F)c(=O)[nH]c2=O)CC1OC(=O)CCC (stereo unspecified)", "TGI": "> 10 µM"}

Qu. Recall the recorded TGI for `COc1cc(/C=C/c2ccc(OC)c(OC)c2)oc(=O)c1` with HT29 colon and state it.
Ans. > 250 µM

Qu. Request: `NCCCn1c(Cl)nc2ccccc21`
Ans. > 100 µM

Qu. Request: `O=C(N/N=C\c1ccc(Cl)cc1)Nc1ccc2ccccc2c1`
Ans. > 100 µM

====

# Test system: NCI-H23 lung
# ASSAY_NOTES: NCI tumour cell line growth inhibition, 48 h
ENDPOINT_LABEL: TGI

Some entries whose results are on file:
{"COMPOUND": "CCC1(CC)C(=O)NC(=O)NC1=S", "TGI": "> 100 µM"}
{"COMPOUND": "CC1(Cl)C(=O)NC(=O)N([C@H]2C[C@H](O)[C@@H](CO)O2)C1N=[N+]=[N-] (stereo partly specified)", "TGI": "> 100 µM"}
{"COMPOUND": "Cc1cn(S(=O)(=O)c2ccccc2)c2c(OCc3ccccc3)cc([N+](=O)[O-])cc12", "TGI": "> 100 µM"}
{"COMPOUND": "Cc1cc(NC(=O)NCCOc2ccc(N3C(N)=NC(N)=NC3(C)C)cc2Cl)ccc1S(=O)(=O)F", "TGI": "> 100 µM"}

Qu. Give its TGI value. Item: `Nc1c(C(=O)c2cccc(-c3cccnc3)c2)cnn1-c1ccc(F)cc1`
Ans. > 25 µM

Qu. Request: `COc1ccc2c(=O)c(-c3cc(OC)c(OC)cc3OC)coc2c1`
Ans. > 100 µM

====

# Tested on: BT-549 breast
# ASSAY_NOTES: NCI tumour cell line growth inhibition, 48 h
ENDPOINT_LABEL: TGI

{"MOLECULE": "Cc1cc2ncn(CC(=O)O)c2cc1C", "ASSAY_SYSTEM": "BT-549 breast", "TGI": "> 100 µM"}
{"MOLECULE": "COc1ccc(-c2cc(-c3ccc(C)cc3)n(C3OC(COC(C)=O)C(OC(C)=O)C(OC(C)=O)C3OC(C)=O)c(=S)c2C#N)cc1 (stereo not given)", "ASSAY_SYSTEM": "BT-549 breast", "TGI": "> 100 µM"}
{"MOLECULE": "COc1ccc(Cn2cc3c(c2-c2ccccc2)CCc2cnoc2-3)cc1", "ASSAY_SYSTEM": "BT-549 breast", "TGI": "> 100 µM"}
{"MOLECULE": "COc1cc(/C=C2\\C(=O)N(c3cccc(NC(C)=O)c3)C(c3ccccc3)S2(=O)=O)cc(OC)c1OC (stereo not given)", "ASSAY_SYSTEM": "BT-549 breast", "TGI": "> 100 µM"}
{"MOLECULE": "COC(=O)C1(Cc2ccc3c(c2)CCC3)Cc2ccc3c(c2C1=O)CCC3 (stereo not given)", "ASSAY_SYSTEM": "BT-549 breast", "TGI": "> 46.1 µM"}
{"MOLECULE": "COc1ccc(SCc2cc(OC)ccc2OC)cc1", "ASSAY_SYSTEM": "BT-549 breast", "TGI": "> 74.3 µM"}

Qu. Give its TGI value. Item: Cc1ccc([N+](=O)[O-])cc1S(=O)(=O)Nc1ccc(C2=NN(S(=O)(=O)c3cc([N+](=O)[O-])ccc3C)C(c3cccs3)C2)cc1 (stereo not given)
Ans. > 100 µM

Qu. Request: `O=C1OC(c2ccc([N+](=O)[O-])cc2)=N/C1=C\c1ccc(Cl)cc1`
Ans. > 100 µM

Qu. Request: `COC(=O)c1csc(-c2csc(CCNC(=O)OC(C)(C)C)n2)n1`
Ans. > 100 µM

Qu. Request: `CC(C)(C)OC(=O)NCCCCCCCCCn1c2c(c3ccccc3c1=O)C(=O)c1ccccc1-2`
Ans. > 100 µM

====

# Test system: RPMI-8226 leukemia
# ASSAY_NOTES: NCI tumour cell line growth inhibition, 48 h
ENDPOINT_LABEL: TGI

{"SMILES": "O=[N+]([O-])c1ccccc1/C=N\\NC(=S)N/N=C/c1ccccc1[N+](=O)[O-]", "ENDPOINT_LABEL": "TGI", "OBSERVED_RESULT": "> 100 µM"}
{"SMILES": "O=[N+]([O-])c1ccc(Sc2cccc[n+]2[O-])c2nonc12", "ENDPOINT_LABEL": "TGI", "OBSERVED_RESULT": "> 100 µM"}
{"SMILES": "Cc1[nH]c(=O)nc(N/N=C/c2c3ccccc3c(Cl)c3ccccc23)c1C(=O)Nc1ccc(Cl)cc1", "ENDPOINT_LABEL": "TGI", "OBSERVED_RESULT": "> 100 µM"}
{"SMILES": "COc1ccc(C2=C(OC(C)=O)c3cccn3-c3ccc(Cl)cc3S2)cc1", "ENDPOINT_LABEL": "TGI", "OBSERVED_RESULT": "6.21 µM"}
{"SMILES": "COc1ccc2c(c1)/C(=C\\c1c(Cl)nc3n1CCS3)C(=O)N2", "ENDPOINT_LABEL": "TGI", "OBSERVED_RESULT": "> 100 µM"}

Qu. Recall the recorded TGI for `O=C(CCCc1cccc2[nH]c3c(c12)CN(Cc1ccccc1)CC3)c1ccc(F)cc1` with RPMI-8226 leukemia and state it.
Ans. > 95.1 µM

Qu. Request: `COc1cc(C[C@H]2COC(=O)[C@]2(O)Cc2ccc(OCc3ccccc3)c(OC)c2)ccc1OCc1ccccc1`
Ans. > 100 µM

Qu. Request: `COc1ccc(SCc2cc(OC)ccc2OC)cc1`
Ans. > 100 µM

====

# Test system: NCI-H522 lung
# ASSAY_NOTES: NCI tumour cell line growth inhibition, 48 h
# log10 TGI listing for each entry below
Values reflect log10 of reported TGI (µM).

Some entries whose results are on file:
{"COMPOUND": "O=C(O)c1cccc([As]=[As]c2cccc(C(=O)O)c2)c1 (centres undefined)", "ENDPOINT_LABEL": "log10 TGI", "OBSERVED_RESULT": 1.55}
{"COMPOUND": "Nc1[nH]nc(Nc2ccccc2)c1-c1nc2ccccc2s1", "ENDPOINT_LABEL": "log10 TGI", "OBSERVED_RESULT": 0.56}
{"COMPOUND": "O=C1/C(=C/c2ccc(F)cc2)COc2ccc(O)c(O)c21", "ENDPOINT_LABEL": "log10 TGI", "OBSERVED_RESULT": 0.09}
{"COMPOUND": "O=[N+]([O-])c1ccc(Sc2cccc[n+]2[O-])c2nonc12", "ENDPOINT_LABEL": "log10 TGI", "OBSERVED_RESULT": 0.58}
{"COMPOUND": "CCN(CC)Cc1cc(N=Nc2c(O)ccc3c(N=Nc4ccc(O)c(CN(CC)CC)c4)c(O)ccc23)ccc1O", "ENDPOINT_LABEL": "log10 TGI", "OBSERVED_RESULT": 1.01}
{"COMPOUND": "COc1ccc(-c2c(C#N)c(N)[nH]c(=S)c2C#N)cc1", "ENDPOINT_LABEL": "log10 TGI", "OBSERVED_RESULT": 1.80}
{"COMPOUND": "Nc1n[n+]([O-])c2ccc(Cl)cc2[n+]1[O-]", "ENDPOINT_LABEL": "log10 TGI", "OBSERVED_RESULT": 1.58}
{"COMPOUND": "COc1cc2c(cc1OC)C(CCN)=NCC2", "ENDPOINT_LABEL": "log10 TGI", "OBSERVED_RESULT": 1.01}
{"COMPOUND": "O=C(COc1cc(=O)oc2ccccc12)c1ccccc1", "ENDPOINT_LABEL": "log10 TGI", "OBSERVED_RESULT": 1.95}
{"COMPOUND": "CC(=O)OC1(Sc2ccccc2)CC2[C@H]3COC(C)(C)O[C@H]3CC[C@@]2(C)CC1=O (some centres undefined)", "ENDPOINT_LABEL": "log10 TGI", "OBSERVED_RESULT": 1.90}

Qu. Recall the recorded log10 TGI for `NCC(=O)Nc1ccc(Cl)cc1C(=O)c1ccc[nH]1` with NCI-H522 lung and state it.
Ans. 1.70

Qu. Request: `CN(C)CCCNc1ccnc2c([N+](=O)[O-])cccc12`
Ans. 1.58

Qu. Request: `Cc1cccc(NC(=O)c2c(N)[n+]([O-])c3ccccc3[n+]2[O-])c1`
Ans. 1.30

Qu. Request: `CC1=C[P+](c2ccccc2)(c2ccccc2)c2ccccc2O1`
Ans. 1.24

Qu. Request: `COc1ccc2nc3cc(Cl)ccc3c(Sc3ccc(N)cc3)c2c1`
Ans. 1.21

Qu. Request: `Cc1cc(NS(=O)(=O)c2ccc(NC(=O)c3ccc(Cl)c4c(Nc5ccc(S(=O)(=O)Nc6cc(C)on6)cc5)c5ccccc5nc34)cc2)no1`
Ans. 1.52

Qu. Request: `CN[C@@H](C)C(=O)N[C@H](C(=O)N1CCC[C@H]1c1nc(C(=O)c2ccc(F)cc2)cs1)C1CCCCC1`
Ans. 1.22

Qu. Request: `Nc1cc(CO)cc(Nc2c3ccccc3nc3ccccc23)c1`
Ans. 1.28
